Target: VLA-4 (Homo sapiens, UniProt P05556+P13612)
Sequence (P13612 34-1032): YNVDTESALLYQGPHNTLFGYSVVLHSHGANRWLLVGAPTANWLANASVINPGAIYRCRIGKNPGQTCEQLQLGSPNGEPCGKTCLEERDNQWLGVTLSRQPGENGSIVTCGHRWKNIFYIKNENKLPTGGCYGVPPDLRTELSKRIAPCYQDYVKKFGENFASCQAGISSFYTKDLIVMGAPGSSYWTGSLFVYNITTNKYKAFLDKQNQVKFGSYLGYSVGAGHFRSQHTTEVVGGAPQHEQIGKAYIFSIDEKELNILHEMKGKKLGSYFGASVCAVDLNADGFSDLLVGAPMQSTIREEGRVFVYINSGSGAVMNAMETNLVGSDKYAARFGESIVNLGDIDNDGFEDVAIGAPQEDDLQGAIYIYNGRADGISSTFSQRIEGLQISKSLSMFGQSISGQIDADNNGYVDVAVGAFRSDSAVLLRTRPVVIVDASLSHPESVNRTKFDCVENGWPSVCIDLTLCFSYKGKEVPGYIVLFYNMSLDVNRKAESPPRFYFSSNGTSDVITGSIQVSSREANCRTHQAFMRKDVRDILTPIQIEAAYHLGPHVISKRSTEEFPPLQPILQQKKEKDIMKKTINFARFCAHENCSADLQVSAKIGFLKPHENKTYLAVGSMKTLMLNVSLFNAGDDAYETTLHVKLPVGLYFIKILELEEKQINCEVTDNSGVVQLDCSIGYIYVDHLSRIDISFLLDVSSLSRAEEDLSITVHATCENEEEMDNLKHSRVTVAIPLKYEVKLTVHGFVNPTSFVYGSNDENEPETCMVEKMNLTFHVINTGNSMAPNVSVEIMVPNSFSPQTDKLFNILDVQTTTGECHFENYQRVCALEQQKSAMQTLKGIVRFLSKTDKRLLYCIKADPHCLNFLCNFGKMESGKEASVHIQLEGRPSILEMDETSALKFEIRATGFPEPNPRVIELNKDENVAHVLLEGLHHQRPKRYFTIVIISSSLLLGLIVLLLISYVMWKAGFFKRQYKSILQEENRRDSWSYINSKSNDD
Sequence (P05556 21-798): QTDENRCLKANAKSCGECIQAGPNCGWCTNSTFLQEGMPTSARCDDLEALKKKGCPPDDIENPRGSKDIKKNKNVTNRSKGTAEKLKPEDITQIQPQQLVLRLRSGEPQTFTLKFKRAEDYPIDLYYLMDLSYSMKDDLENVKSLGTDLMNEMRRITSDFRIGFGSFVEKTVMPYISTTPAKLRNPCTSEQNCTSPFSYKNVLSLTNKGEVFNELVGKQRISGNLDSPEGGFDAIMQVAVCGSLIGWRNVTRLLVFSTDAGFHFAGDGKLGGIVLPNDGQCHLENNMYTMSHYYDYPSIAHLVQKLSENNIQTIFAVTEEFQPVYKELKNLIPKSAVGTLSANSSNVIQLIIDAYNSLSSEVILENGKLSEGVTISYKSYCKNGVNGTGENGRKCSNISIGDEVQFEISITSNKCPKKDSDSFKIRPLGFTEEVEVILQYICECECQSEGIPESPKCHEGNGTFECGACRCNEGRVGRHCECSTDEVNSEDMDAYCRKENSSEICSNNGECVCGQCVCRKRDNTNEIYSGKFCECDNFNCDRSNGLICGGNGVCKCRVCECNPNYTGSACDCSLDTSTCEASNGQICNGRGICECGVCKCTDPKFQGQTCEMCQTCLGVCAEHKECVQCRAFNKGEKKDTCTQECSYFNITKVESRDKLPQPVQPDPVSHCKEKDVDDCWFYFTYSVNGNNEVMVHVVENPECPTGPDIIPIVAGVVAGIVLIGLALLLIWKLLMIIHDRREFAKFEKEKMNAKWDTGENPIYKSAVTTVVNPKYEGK
Assay: In vitro binding inhibition of 51Cr-labeled Jurkat cells to solid phase-bound CS-1 compound (SEQ ID NO:1)
Type: cell-based
Set-up: inflammatory cells that contain the VLA-4 receptor [Jurkat cells; host or cells: Jurkat (human T lymphoblastic line)
Procedure: Binding inhibition is measured here as a concentration of compound that inhibits one-half the binding between a standard number of Jurkat cells and a standard amount of CS-1 compound bound to the surface of a microtiter plate well. Those concentrations are conveniently expressed as IC50 values, smaller numbers indicating a lower concentration required to inhibit 50 percent binding and therefore greater potency. Further specifics of this assay are provided hereinafter. […]
Square brackets hold non-standard residues; d marks the D form. Peptide text beside a SMILES is read from it. * marks the point of attachment. Isonicotinoyl = O=C(c1ccncc1)*
Measured Endpoint: Relative Potency

{"Compound": "CC(=O)N[C@@H](Cc1ccccc1)C(=O)N[C@@H](CC(C)C)C(=O)N[C@@H](CC(=O)O)C(=O)N[C@@H](Cc1ccccc1)C(=O)N1CCC[C@@H]1C(N)=O [951.42] (Ac-FLDF[dP]-NH2)", "Relative Potency": 35.4}

a = CC(C)C[C@H](NC(=O)c1ccncc1)C(=O)N[C@@H](CC(=O)O)C(=O)N[C@@H](Cc1ccccc1)C(=O)N1CCC[C@@H]1C(N)=O [951.20] (Isonicotinoyl-LDF[dP]-NH2)
b = Cc1cccc(C(=O)N[C@@H](CC(C)C)C(=O)N[C@@H](CC(=O)O)C(=O)N[C@H](C(=O)N2CCC[C@@H]2C(N)=O)C(C)C)c1C
Task: Could you check which of a and b has a smaller value for Relative Potency? Mark your selection by writing its label.
Output: b
(b: 6.57, a: 228)

----------
Biological target: VLA-4 (Homo sapiens, UniProt P05556+P13612)
Test: In vitro binding inhibition of 51Cr-labeled Jurkat cells to solid phase-bound CS-1 compound (SEQ ID NO:1)
Type: cell-based
Design: inflammatory cells that contain the VLA-4 receptor [Jurkat cells; host or cells: Jurkat (human T lymphoblastic line)
Conditions: binding inhibition potency relative to standard compound of SEQ ID NO:3 = 1 (normalized IC50); about one-tenth or less assigned zero
Square brackets hold non-standard residues; d marks the D form. Peptide text beside a SMILES is read from it. * marks the point of attachment. PhAc = O=C(Cc1ccccc1)*; Inp = O=C(O)C1CCNCC1; OtBu = CC(C)(C)O*
Parameter Relative Potency: see the listing below.
I'd appreciate a reply containing only the number, no unit.

{"Compound": "CC(C)C[C@H](NC(=O)Cc1ccccc1)C(=O)N[C@@H](CC(=O)O)C(=O)N[C@@H](Cc1ccccc1)C(=O)N1CCC(C(=O)O)CC1 [1111.04] (PhAc-LDF[Inp]-OH)", "Number": 836}
{"Compound": "CC(C)C[C@H](NC(=O)[C@H](CC(=O)O)NC(=O)Cc1ccccc1)C(=O)N[C@@H](Cc1ccccc1)C(=O)N1CCC[C@@H]1C(N)=O [Compound ID No. 1066.02, N-phenylacetyl-Asp-Leu-Phe-D-Pro-NH2, reference compound] (PhAc-DLF[dP]-NH2)", "Number": 0}
{"Compound": "CC(C)C[C@H](NC(=O)Cc1ccccc1)C(=O)N[C@@H](CC(=O)O)C(=O)N[C@@H](Cc1ccccc1)C(=O)N1CCN(CCOCCO)CC1 [1111.07]", "Number": 510}
{"Compound": "CC(C)C[C@H](NC(=O)Cc1ccccc1)C(=O)N[C@@H](CC(=O)O)C(=O)N[C@@H](Cc1ccc(O)cc1)C(=O)OC(C)(C)C [1040.02] (PhAc-Leu-Asp-Tyr-OtBu)", "Number": 14.7}

Now look at this one.
response.value for CC(C)C[C@H](NC(=O)Cc1ccccc1)C(=O)N[C@@H](CC(=O)O)C(=O)NC1CCCCNC1=O (some centres unmarked) [1043.02] (field: Relative Potency) = 26.8

Reference for the values: patent US5770573A
